# run-conditions: [M+H]+; instrument: TW; Major Mix IMS/Tof Calibration Kit (Waters)
assay-endpoint: collision cross section (N2) (Å²)
Lab book: enter the figure in Å², no units written.

Q: Data request, read-out collision cross section (N2), for C=CCOc1ccccc1OCC(O)CNC(C)C (stereo not given)
A: 161.7

Q: Fill in the blank: the reported collision cross section (N2) of Cc1ccc(-c2cc(C(F)(F)F)nn2-c2ccc(S(N)(=O)=O)cc2)cc1 is ____.
A: 186.4

Q: Sample CCCC(=O)Nc1ccc(OCC(O)CNC(C)C)c(C(C)=O)c1 (stereo not given) — what was its collision cross section (N2)?
A: 190.2

Q: Quick check: collision cross section (N2) of CC(C)(C)NCC(O)c1cc(O)cc(O)c1 (stereo not given) ?
A: 154.9

Q: Give its collision cross section (N2) value. Item: CNCCCN1c2ccccc2Sc2ccc(Cl)cc21
A: 168.7

Q: For the compound shown here, CNC(C)C(=O)c1ccc(C)cc1 (stereo not given) , give the reported collision cross section (N2).
A: 143.1

Q: Item Nc1ccc(S(=O)(=O)Nc2ccccn2)cc1 has what recorded collision cross section (N2)?
A: 150.8

Q: If you can, please state the reported collision cross section (N2) value of OCCOCCN1CCN(C2=Nc3ccccc3Sc3ccccc32)CC1 .
A: 192.9

Q: Item CNC(=O)CSP(=S)(OC)OC [Dimethoate] has what recorded collision cross section (N2)?
A: 139.9

Q: Reported collision cross section (N2), compound CCOC(=O)C1(c2ccccc2)CCN(C)CC1 : ____
A: 158.5

====

Assignment: determine reported collision cross section (N2) for the given molecules.
# run-conditions: [M+Na]+; instrument: DT; stepped-field
Write the number in Å² without appending the unit.

Q: What does the data say about its collision cross section (N2)? Entry: CCCCCCC/C=C\CCCCCCCC(=O)O[C@H](COC(=O)CCCCCCC/C=C\CCCCCCCC)COP(=O)(O)OCCN
A: 275.61

Q: Query: collision cross section (N2); subject: CCCC/C=C\CCCCCCCC(=O)OC[C@H](COP(=O)(O)O)OC(=O)CCCCCCCCC/C=C\CCCCCCCCCC
A: 272.25

Q: Item CCCCCCCCCCCCC=CC[C@@H](O)[C@H](CO[C@@H]1O[C@H](CO)[C@@H](O)C(O)C1O)NC(=O)CC=CCC=CCCCCCCCCCCCCCCCCCCC (stereo partly drawn) has what recorded collision cross section (N2)?
A: 303.93

Q: Would you mind telling me what collision cross section (N2) value was observed for CCCCCCCCCCCCC=CC[C@@H](O)[C@H](COP(=O)([O-])OCC[N+](C)(C)C)NC(=O)CCCCCCCCCCCCCCCCCCCCCC ?
A: 299.31

Q: Recorded collision cross section (N2) of CCCCC/C=C\C/C=C\CCCCCCCCCCCC(=O)O[C@H](COC(=O)CCCCCCCCCCC)COP(=O)(O)OCCN , please.
A: 273.06

Q: Request the reported collision cross section (N2) associated with CC/C=C/C=C\C=C/C=C\C=C/C=C\CCCCCCCC(=O)O[C@H](COC(=O)CCCCCCCCCCCCCCCCC)COP(=O)([O-])OCC[N+](C)(C)C
A: 294.42

Q: I'd like to know its collision cross section (N2). The molecule in question is CCCCCCCCCCCCCCCC(=O)N[C@@H](CO[C@@H]1O[C@H](CO)[C@@H](O)C(O)C1O)[C@H](O)CCCCCCCCCCCCCCC (stereo partly drawn)
A: 280.92

Q: I'd like to know its collision cross section (N2). The molecule in question is CCCCC/C=C\C/C=C\C/C=C\CCCCC(=O)O[C@H](COCCCCCCCCCCCCCCCC)COP(=O)(O)OCCN
A: 270.85

Q: Returns the measured collision cross section (N2) for the input molecule. Input: CCCCC/C=C\C/C=C\CCCCCCCCCC(=O)O[C@H](COC(=O)CCCCCCC/C=C\C/C=C\CCCCC)COP(=O)(O)O
A: 276.54

Q: # input molecule: CCCCCCCCCCCCC=CC[C@@H](O)[C@H](CO[C@@H]1O[C@H](CO)[C@@H](O)C(O)C1O)NC(=O)CCCCCCCCCCCCCCCCCCCCCCC (stereo partly drawn) ; wanted: its collision cross section (N2)
A: 301.76

Q: # input molecule: CCCCCCCCCCCCC=CC[C@@H](O)[C@H](COP(=O)([O-])OCC[N+](C)(C)C)NC(=O)CCCCCCCCCCCCCCCCCC ; wanted: its collision cross section (N2)
A: 285.35

Q: I have this molecule here, CCCCCC/C=C\CCCCCCCC(=O)OC[C@H](COP(=O)(O)OCCN)OC(=O)CCCCCCCCC/C=C\CCCCCCCC , and I need its recorded collision cross section (N2).
A: 279.88

Q: GET /values?readout=collision cross section (N2)&item= CCCCCCCCCCCCC=CC[C@@H](O)[C@H](CO[C@@H]1O[C@H](CO)[C@@H](O)C(O)C1O)NC(=O)CCCCCCCCCCCCCCCCC (stereo partly drawn)
A: 284

Q: GET /values?readout=collision cross section (N2)&item= CCCCC/C=C\C/C=C\C/C=C\C/C=C\CCCC(=O)O[C@H](COC(=O)CCCCCCCCCCCCCCC)COP(=O)(O)O
A: 268.39

Q: Requested field: collision cross section (N2). Item: CCCCCCCCCCCCCCCCCCCC(=O)N[C@@H](CO[C@@H]1O[C@H](CO)[C@@H](O)C(O)C1O)[C@H](O)CCCCCCCCCCCCCCC (stereo partly drawn)
A: 291.27

Q: I am curious: what collision cross section (N2) value has been reported for CCCCCC/C=C/CCCCCCCCCC(=O)O[C@H](COC(=O)CCCCCCCCCCCCCCC)COP(=O)([O-])OCC[N+](C)(C)C ?
A: 284.83

Q: What does the record list as collision cross section (N2) for CCCCCCCCCCCCC=CC[C@@H](O)[C@H](COP(=O)([O-])OCC[N+](C)(C)C)NC(=O)CC=CCC=CCCCCCCCCCCCCCCCCCCC ?
A: 304.66

Q: Returns the measured collision cross section (N2) for the input molecule. Input: CCCCC/C=C\C/C=C\C/C=C\CCCCC(=O)O[C@H](COCCCCCCCCCCCCCCCCCCCC)COP(=O)(O)OCCN
A: 283.24

Q: Param item = CCCCCCCCCCCCC=CC[C@@H](O)[C@H](CO[C@@H]1O[C@H](CO)[C@@H](O)C(O)C1O)NC(=O)CC=CCCCCCCCCCCCCCCCCCCCCCC (stereo partly drawn) ; retrieve measured collision cross section (N2).
A: 306.31

Q: Report collision cross section (N2) for CCCCCCCCCCCCC=CC[C@@H](O)[C@H](CO[C@@H]1O[C@H](CO)[C@@H](O)C(O)C1O)NC(=O)CCCCCCCCCCCCCCCCCCCCCC (stereo partly drawn) please.
A: 297.42

Q: Give the measured collision cross section (N2) of CCCCCCCCCCCCC=CC[C@@H](O)[C@H](CO[C@@H]1O[C@H](CO)[C@@H](O)C(O)C1O)NC(=O)CC=CCCCCCCCCCCCCCCCCCC (stereo partly drawn) .
A: 292.09

Q: Query (molecule): CCCCC/C=C\C/C=C\CCCC/C=C\CCCC(=O)O[C@H](COC(=O)CCCCCCCCCCCCCCCCC)COP(=O)([O-])OCC[N+](C)(C)C ; field requested: collision cross section (N2)
A: 293.06

Q: Look up collision cross section (N2): CCCCCCCCCCCCC=CC[C@@H](O)[C@H](CO[C@@H]1O[C@H](CO)[C@@H](O)C(O)C1O)NC(=O)CCCCCCCCCCCCCCCCCC (stereo partly drawn)
A: 287.43

====

# run-conditions: [M+H]+; instrument: DT; stepped-field
assay-endpoint: collision cross section (N2) (Å²)
Your answer is read as Å², so omit the unit and give the number.

Q: Could you share which collision cross section (N2) value was measured for NCC(=O)N[C@@H](CCCN=C(N)N)C(=O)NCC(=O)N[C@@H](CC(=O)O)C(=O)N[C@@H](CO)C(=O)O ?
A: 205.9

Q: Which collision cross section (N2) is reported for this compound? CCC(C)[C@H](NC(=O)[C@H](CC(N)=O)NC(=O)[C@H](C)N)C(=O)N[C@@H](CC(=O)O)C(=O)N[C@H](C(=O)N[C@@H](CCCCN)C(=O)O)C(C)C (some centres undefined)
A: 248.1

Q: Returns the measured collision cross section (N2) for the input compound. Input: CC(C)C[C@H](NC(=O)[C@H](CO)NC(=O)[C@@H](N)C(C)C)C(=O)N[C@@H](C)C(=O)N[C@@H](CCC(=O)O)C(=O)N[C@@H](CCCCN)C(=O)O
A: 249

Q: # lookup: collision cross section (N2) of CC(C)C[C@H](NC(=O)[C@H](C)NC(=O)[C@@H](N)CCC(=O)O)C(=O)N[C@@H](CC(=O)O)C(=O)N[C@@H](Cc1ccccc1)C(=O)N[C@@H](Cc1ccccc1)C(=O)N[C@@H](C)C(=O)N[C@@H](CCCNC(=N)N)C(=O)O
A: 305.9

Q: Which collision cross section (N2) reading was recorded for the compound CCC(C)[C@H](N)C(=O)NCC(=O)N[C@@H](CC(=O)O)C(=O)N[C@@H](Cc1ccc(O)cc1)C(=O)N[C@@H](C)C(=O)NCC(=O)N[C@H](C(=O)N[C@@H](CCCCN)C(=O)O)C(C)CC (some centres undefined) ?
A: 285.9

Q: GET /values?readout=collision cross section (N2)&item= CCC(C)[C@H](NC(=O)[C@H](CC(N)=O)NC(=O)[C@H](CCC(=O)O)NC(=O)[C@H](C)NC(=O)[C@H](CC(C)C)NC(=O)[C@@H](N)CC(N)=O)C(=O)N[C@@H](CO)C(=O)N[C@@H](CCCNC(=N)N)C(=O)O (some centres undefined)
A: 291.7

Q: For the compound CC(C)C[C@H](NC(=O)[C@H](CC(=O)O)NC(=O)[C@H](C)NC(=O)[C@H](CC(C)C)NC(=O)[C@@H](N)Cc1c[nH]cn1)C(=O)N[C@@H](CO)C(=O)N[C@@H](CCCCN)C(=O)O , what collision cross section (N2) is on record?
A: 273.3

Q: GET /values?readout=collision cross section (N2)&item= CC(C)C[C@H](NC(=O)[C@H](CCC(=O)O)NC(=O)[C@@H](N)CCC(=O)O)C(=O)N[C@@H](Cc1ccccc1)C(=O)N[C@@H](CCCNC(=N)N)C(=O)O
A: 254.1

Q: What does the data say about its collision cross section (N2)? Entry: OC[C@H]1O[C@@](CO)(O[C@H]2O[C@H](CO)[C@@H](O)[C@H](O)[C@H]2O)[C@@H](O[C@H]2O[C@H](CO)[C@@H](O)[C@H](O)[C@H]2O)[C@@H]1O
A: 202.6
